- Tested on: Alopecurus myosuroides (ALOMY)
- measurement-notes: Post-emergence herbicidal action
- Type: in vivo
- condition-notes: 80 g of a.i./ha, comparative test
// values below are reported Herbicidal action against ALOMY
measured-endpoint: Herbicidal action against ALOMY (%)

compound_string=Cn1nc(C(F)(F)F)cc1Oc1nc(C2CC2)cc(-n2cc(C(F)(F)F)cn2)n1 measurement_unit=% numeric_value=70
compound_string=FC(F)Oc1cc(Oc2nc(C3CC3)cc(-n3cc(C(F)(F)F)cn3)n2)ccn1 measurement_unit=% numeric_value=60
compound_string=FC(F)(F)Oc1cccc(Oc2nc(C3CC3)cc(-n3cc(C(F)(F)F)cn3)n2)c1 measurement_unit=% numeric_value=50
compound_string=FC(F)(F)c1cnn(-c2cc(C3CC3)nc(Oc3ccnc(C(F)(F)F)c3)n2)c1 measurement_unit=% numeric_value=80
